Biological target: T1, EsCas13d, nuclease-dead (Eubacterium siraeum, UniProt B0MS50, R295A;H300A;R849A;H854A)
T1 sequence: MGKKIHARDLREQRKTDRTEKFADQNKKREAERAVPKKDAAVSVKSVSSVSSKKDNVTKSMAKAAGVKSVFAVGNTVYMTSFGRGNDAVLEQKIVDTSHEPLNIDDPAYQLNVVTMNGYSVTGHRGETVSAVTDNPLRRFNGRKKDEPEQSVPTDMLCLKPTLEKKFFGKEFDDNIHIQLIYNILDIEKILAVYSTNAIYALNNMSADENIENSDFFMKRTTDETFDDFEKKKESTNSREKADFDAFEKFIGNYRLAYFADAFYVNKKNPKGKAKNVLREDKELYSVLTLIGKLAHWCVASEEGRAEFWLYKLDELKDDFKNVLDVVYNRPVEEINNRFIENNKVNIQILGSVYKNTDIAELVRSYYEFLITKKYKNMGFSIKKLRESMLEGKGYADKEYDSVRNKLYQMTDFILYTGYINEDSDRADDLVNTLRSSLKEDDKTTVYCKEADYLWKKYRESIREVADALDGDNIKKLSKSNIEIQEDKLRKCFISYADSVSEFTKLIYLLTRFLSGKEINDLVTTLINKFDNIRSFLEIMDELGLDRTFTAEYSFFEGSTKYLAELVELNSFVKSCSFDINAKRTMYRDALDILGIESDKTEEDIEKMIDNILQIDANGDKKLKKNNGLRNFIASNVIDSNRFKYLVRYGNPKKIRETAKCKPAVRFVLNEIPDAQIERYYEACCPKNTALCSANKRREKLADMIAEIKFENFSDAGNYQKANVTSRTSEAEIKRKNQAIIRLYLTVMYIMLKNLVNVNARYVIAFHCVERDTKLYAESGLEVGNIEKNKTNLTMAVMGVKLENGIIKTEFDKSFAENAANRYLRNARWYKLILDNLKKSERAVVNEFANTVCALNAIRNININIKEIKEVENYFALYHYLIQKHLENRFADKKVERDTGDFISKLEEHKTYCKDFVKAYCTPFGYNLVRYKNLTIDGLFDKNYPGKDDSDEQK
Experiment: crRNA (strand 1, pre-loaded); Mg2+; 40 mM Tris-HCl pH 7.5, 150 mM NaCl, 6 mM MgCl2, 1 mM DTT, 0.1% Tween-20, 0.2 mg/ml BSA; 25 C; 10 min per concentration, then washed
Conditions: tags: His6-TwinStrep-SUMO cleaved; N-terminal SNAP kept (SNAP-Surface 488); label: 3' end held by stalled T7 RNA polymerase
# pKd per entry
Lab note — pKd values are minus log10 of concentrations in M.

Study these solved cases before continuing.
target 1 U10C,G12C (mixed) RNA 1: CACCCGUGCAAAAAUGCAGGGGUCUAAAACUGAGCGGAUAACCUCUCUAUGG RNA 2: GGGAAUGGAUCCACAUCUACGAAUUCGUACCAUAGAGAGCUCAUCCGCUCACCGAGAUCGGAAGAGCACACGU
7.15
target 1 C2G,C22A (mixed) RNA 1: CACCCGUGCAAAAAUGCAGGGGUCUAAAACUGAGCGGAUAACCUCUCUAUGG RNA 2: GGGAAUGGAUCCACAUCUACGAAUUCGUAACAUAGAGAGGUUAUCCGCUGACCGAGAUCGGAAGAGCACACGU
7.77
target 2 MT 5'PFS GGG 3'PFS AGA (mixed) RNA 1: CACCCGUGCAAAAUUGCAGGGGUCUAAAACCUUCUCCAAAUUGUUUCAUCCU RNA 2: GGGAAUGGAUCCACAUCUACGAAUUCGGGAGGAUGAAACAAUUUGGAGAAGAGAAGAUCGGAAGAGCACACGU
8.26
target 2 MT 5'PFS GAU 3'PFS CAU (mixed) RNA 1: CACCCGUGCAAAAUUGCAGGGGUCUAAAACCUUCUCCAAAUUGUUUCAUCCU RNA 2: GGGAAUGGAUCCACAUCUACGAAUUCGAUAGGAUGAAACAAUUUGGAGAAGCAUAGAUCGGAAGAGCACACGU
8.05

# evaluate next
Exercise: Quick check: pKd of target 1 MT 5'PFS ACA 3'PFS AAG (mixed) RNA 1: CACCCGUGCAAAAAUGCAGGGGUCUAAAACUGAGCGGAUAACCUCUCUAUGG RNA 2: GGGAAUGGAUCCACAUCUACGAAUUCACACCAUAGAGAGGUUAUCCGCUCAAAGAGAUCGGAAGAGCACACGU ?
Key: 7.74
